# Test target: human KDR enzyme (Homo sapiens)
# Construct: The cytoplasmic domain of the human KDR enzyme was cloned in the form of a GST fusion; GST
# Sequence (P35968 786-1356 limits assumed): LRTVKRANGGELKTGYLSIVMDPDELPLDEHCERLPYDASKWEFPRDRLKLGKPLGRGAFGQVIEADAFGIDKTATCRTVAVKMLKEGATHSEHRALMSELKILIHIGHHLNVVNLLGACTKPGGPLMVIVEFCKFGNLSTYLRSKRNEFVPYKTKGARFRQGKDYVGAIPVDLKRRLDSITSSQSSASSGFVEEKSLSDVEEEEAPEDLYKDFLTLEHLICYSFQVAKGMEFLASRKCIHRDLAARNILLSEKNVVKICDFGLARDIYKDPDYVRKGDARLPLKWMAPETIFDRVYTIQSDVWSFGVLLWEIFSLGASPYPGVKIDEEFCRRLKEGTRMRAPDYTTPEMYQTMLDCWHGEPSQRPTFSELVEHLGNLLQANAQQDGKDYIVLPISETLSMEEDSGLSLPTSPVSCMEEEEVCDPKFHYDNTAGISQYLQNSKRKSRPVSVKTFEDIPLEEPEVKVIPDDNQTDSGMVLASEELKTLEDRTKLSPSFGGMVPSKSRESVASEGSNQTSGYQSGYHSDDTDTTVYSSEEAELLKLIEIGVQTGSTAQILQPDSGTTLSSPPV
# Measurement notes: in vitro test of phosphorylation of substrate with the enzyme KDR (scintillation technique)
# Study conditions: Table 1; unit inferred; read-out: KDR (concentration that inhibits 50% of the kinase activity)
pIC50: −log10 of the molar value. Where a name gives a salt, the structure may show the parent alone.
Values of pIC50 greater than or equal to 8 map to yes; values below map to no.

Prompt: hey, is pIC50 for this one >= 8? COC(=O)c1n[nH]cc1NCc1cccc(NC(=O)Nc2cc(C(F)(F)F)ccc2F)c1 [Example 32, trifluoroacetate]
Completion: no

Prompt: hey, is pIC50 for this one >= 8? NC(=O)c1n[nH]cc1NCc1cccc(NC(=O)Nc2cc(F)cc(C(F)(F)F)c2)c1 [Example 7, trifluoroacetate]
Completion: yes

Prompt: hey, is pIC50 for this one >= 8? COC(=O)c1cccc(NC(=O)Nc2cccc(CNc3c[nH]nc3C(N)=O)c2)c1 [Example 9, trifluoroacetate]
Completion: no
